Tested on: Escherichia coli TOP10
procedureText: shrunken log2 fold change of peptide-encoding DNA abundance (4.5 h post-induction vs induction); higher = less antimicrobial activity (less host growth inhibition)
conditionInfo: time post-induction: 4.5 h; library: site-saturation at positions 5, 18, 19, 20
Assign class by shrunken log2 fold change: not lower than -0.01 means True; lower than -0.01 means False.

Consider the worked cases shown below.
[
  {
    "orderedResidues": "RRIRSRPPRLPRPRPRPSKTPRP",
    "targetOrTestSystem": "Escherichia coli TOP10",
    "assignedClass": "False"
  },
  {
    "orderedResidues": "RRIRLRPPRLPRPRPRPWVLPRP",
    "targetOrTestSystem": "Escherichia coli TOP10",
    "assignedClass": "False"
  },
  {
    "orderedResidues": "RRIRGRPPRLPRPRPRPMVLPRP",
    "targetOrTestSystem": "Escherichia coli TOP10",
    "assignedClass": "False"
  }
]

Q. # check: shrunken log2 fold change of `RRIRHRPPRLPRPRPRPVVEPRP` is greater than or equal to -0.01
A. False

Q. Also need `RRIRCRPPRLPRPRPRPNTFPRP` , thanks.
A. False

Q. Also need `RRIRERPPRLPRPRPRPEAMPRP` , thanks.
A. True

Q. Also need `RRIRNRPPRLPRPRPRPQCSPRP` , thanks.
A. False

----------
Test system: Escherichia coli TOP10
procedureText: shrunken log2 fold change of peptide-encoding DNA abundance (4.5 h post-induction vs induction); higher = less antimicrobial activity (less host growth inhibition)
conditionInfo: time post-induction: 4.5 h; library: site-saturation at positions 5, 18, 19, 20
List of shrunken log2 fold change values.
Please reply with the value in numeric form only.

See these solved cases before continuing.
[
  {
    "orderedResidues": "RRIRFRPPRLPRPRPRPDAAPRP",
    "numericReadout": 0.681
  },
  {
    "orderedResidues": "RRIRGRPPRLPRPRPRPSWDPRP",
    "numericReadout": 0.496
  },
  {
    "orderedResidues": "RRIRERPPRLPRPRPRPCVKPRP",
    "numericReadout": -0.00643
  },
  {
    "orderedResidues": "RRIRVRPPRLPRPRPRPQFCPRP",
    "numericReadout": -0.17
  },
  {
    "orderedResidues": "RRIRKRPPRLPRPRPRPDMVPRP",
    "numericReadout": -0.00254
  }
]

Q. Need shrunken log2 fold change of `RRIRLRPPRLPRPRPRPLVYPRP` , thanks.
A. -0.335

Q. Also need `RRIRLRPPRLPRPRPRPVFNPRP` , thanks.
A. -0.448

Q. Also need `RRIRWRPPRLPRPRPRPPHRPRP` , thanks.
A. 0.321

Q. Also need `RRIRPRPPRLPRPRPRPPQGPRP` , thanks.
A. 0.686

Q. Also need `RRIRARPPRLPRPRPRPYSSPRP` , thanks.
A. -0.28

Q. Also need `RRIRGRPPRLPRPRPRPAGVPRP` , thanks.
A. 0.742

Q. Also need `RRIRCRPPRLPRPRPRPDQWPRP` , thanks.
A. -0.197

Q. Also need `RRIRHRPPRLPRPRPRPEDWPRP` , thanks.
A. 0.83

----------
Test system: Escherichia coli TOP10
procedureText: shrunken log2 fold change of peptide-encoding DNA abundance (4.5 h post-induction vs induction); higher = less antimicrobial activity (less host growth inhibition)
conditionInfo: time post-induction: 4.5 h; library: site-saturation at positions 5, 18, 19, 20
Assign class by shrunken log2 fold change: not lower than 0.004 means YES; lower than 0.004 means NO.

Consider the worked cases shown below.
[
  {
    "orderedResidues": "RRIRPRPPRLPRPRPRPQQDPRP",
    "assignedClass": "NO"
  },
  {
    "orderedResidues": "RRIRFRPPRLPRPRPRPVVVPRP",
    "assignedClass": "NO"
  },
  {
    "orderedResidues": "RRIRPRPPRLPRPRPRPTEIPRP",
    "assignedClass": "NO"
  },
  {
    "orderedResidues": "RRIRCRPPRLPRPRPRPRKQPRP",
    "assignedClass": "YES"
  },
  {
    "orderedResidues": "RRIRGRPPRLPRPRPRPVREPRP",
    "assignedClass": "YES"
  }
]

Q. # check: shrunken log2 fold change of `RRIRRRPPRLPRPRPRPSCPPRP` is greater than or equal to 0.004
A. YES

Q. Also need `RRIRTRPPRLPRPRPRPWDQPRP` , thanks.
A. NO

Q. Also need `RRIRIRPPRLPRPRPRPIKEPRP` , thanks.
A. NO

Q. Also need `RRIRRRPPRLPRPRPRPTLGPRP` , thanks.
A. YES

----------
System: Escherichia coli TOP10
procedureText: shrunken log2 fold change of peptide-encoding DNA abundance (4.5 h post-induction vs induction); higher = less antimicrobial activity (less host growth inhibition)
conditionInfo: time post-induction: 4.5 h; library: site-saturation at positions 5, 18, 19, 20
quantityName: shrunken log2 fold change

See these solved cases before continuing.
[
  {
    "orderedResidues": "RRIRSRPPRLPRPRPRPPPAPRP",
    "shrunken log2 fold change": 1.04
  },
  {
    "orderedResidues": "RRIRCRPPRLPRPRPRPKECPRP",
    "shrunken log2 fold change": 0.103
  },
  {
    "orderedResidues": "RRIRDRPPRLPRPRPRPCSGPRP",
    "shrunken log2 fold change": -0.0282
  },
  {
    "orderedResidues": "RRIRERPPRLPRPRPRPFILPRP",
    "shrunken log2 fold change": -0.784
  },
  {
    "orderedResidues": "RRIRKRPPRLPRPRPRPECVPRP",
    "shrunken log2 fold change": 1.69
  },
  {
    "orderedResidues": "RRIRYRPPRLPRPRPRPCGFPRP",
    "shrunken log2 fold change": -0.241
  }
]

Q. Need shrunken log2 fold change of `RRIRIRPPRLPRPRPRPWSNPRP` , thanks.
A. -0.0121

Q. Also need `RRIRFRPPRLPRPRPRPTRIPRP` , thanks.
A. 0.0179

----------
Test system: Escherichia coli TOP10;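 also: peptides expressed intracellularly from a pBAD plasmid library in pooled LB shake-flask culture, induced with 0.3% L-arabinose, DNA abundance read by NGS, three biological replicates, DESeq2 with apeglm shrinkage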
procedureText: shrunken log2 fold change of peptide-encoding DNA abundance (4.5 h post-induction vs induction); higher = less antimicrobial activity (less host growth inhibition)
conditionInfo: time post-induction: 4.5 h; library: site-saturation at positions 5, 18, 19, 20
Assign class by shrunken log2 fold change: not lower than -0.07 means true; lower than -0.07 means false.

Consider the worked cases shown below.
[
  {
    "orderedResidues": "RRIRNRPPRLPRPRPRPTKDPRP",
    "targetOrTestSystem": "Escherichia coli TOP10",
    "assignedClass": "false"
  },
  {
    "orderedResidues": "RRIRPRPPRLPRPRPRPVAKPRP",
    "targetOrTestSystem": "Escherichia coli TOP10",
    "assignedClass": "true"
  },
  {
    "orderedResidues": "RRIRRRPPRLPRPRPRPINYPRP",
    "targetOrTestSystem": "Escherichia coli TOP10",
    "assignedClass": "false"
  },
  {
    "orderedResidues": "RRIRWRPPRLPRPRPRPCGDPRP",
    "targetOrTestSystem": "Escherichia coli TOP10",
    "assignedClass": "true"
  },
  {
    "orderedResidues": "RRIRRRPPRLPRPRPRPNHQPRP",
    "targetOrTestSystem": "Escherichia coli TOP10",
    "assignedClass": "true"
  },
  {
    "orderedResidues": "RRIRLRPPRLPRPRPRPAMSPRP",
    "targetOrTestSystem": "Escherichia coli TOP10",
    "assignedClass": "true"
  },
  {
    "orderedResidues": "RRIRFRPPRLPRPRPRPNPEPRP",
    "targetOrTestSystem": "Escherichia coli TOP10",
    "assignedClass": "false"
  },
  {
    "orderedResidues": "RRIRNRPPRLPRPRPRPKYIPRP",
    "targetOrTestSystem": "Escherichia coli TOP10",
    "assignedClass": "false"
  },
  {
    "orderedResidues": "RRIRQRPPRLPRPRPRPDASPRP",
    "targetOrTestSystem": "Escherichia coli TOP10",
    "assignedClass": "true"
  },
  {
    "orderedResidues": "RRIRPRPPRLPRPRPRPAVEPRP",
    "targetOrTestSystem": "Escherichia coli TOP10",
    "assignedClass": "true"
  }
]

Q. # check: shrunken log2 fold change of `RRIRVRPPRLPRPRPRPAVSPRP` is greater than or equal to -0.07
A. true

Q. Also need `RRIRHRPPRLPRPRPRPVMDPRP` , thanks.
A. true

Q. Also need `RRIRERPPRLPRPRPRPCGVPRP` , thanks.
A. true

Q. Also need `RRIRPRPPRLPRPRPRPHSHPRP` , thanks.
A. true

Q. Also need `RRIRLRPPRLPRPRPRPQFNPRP` , thanks.
A. false

Q. Also need `RRIRYRPPRLPRPRPRPLNPPRP` , thanks.
A. true

Q. Also need `RRIRARPPRLPRPRPRPSTIPRP` , thanks.
A. false

Q. Also need `RRIRYRPPRLPRPRPRPHRHPRP` , thanks.
A. false

Q. Also need `RRIRGRPPRLPRPRPRPHHVPRP` , thanks.
A. true

Q. Also need `RRIRQRPPRLPRPRPRPDSDPRP` , thanks.
A. false

Q. Also need `RRIRTRPPRLPRPRPRPQAFPRP` , thanks.
A. true

Q. Also need `RRIRKRPPRLPRPRPRPTTFPRP` , thanks.
A. true

Q. Also need `RRIRWRPPRLPRPRPRPNQTPRP` , thanks.
A. true

Q. Also need `RRIRGRPPRLPRPRPRPAPRPRP` , thanks.
A. true
